Molecular target: T1, recombinant human IP-10 (human, UniProt P02778 22-98)
T1 sequence: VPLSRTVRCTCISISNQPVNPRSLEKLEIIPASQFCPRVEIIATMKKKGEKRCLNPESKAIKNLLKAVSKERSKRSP
Test: cell-based or functional assay
Property measured: inhibition of chemotaxis (IC50%) on recombinant IP-10, mean of donors (ng/mL)
Write the number in ng/mL without appending the unit.

Worked set:
Binder | Recorded measurement
murine monoclonal antibody AIP12 (antibody, V domains shown, Mouse hybridoma antibody; also called MuAIP12) VH: QIQLVQSGPELKKPGETVKISCKASGYTFTDYSMHWVKQAPGKGLKWMGWINTETGEPTYADDFKGRFAFSLETSASTAYLQINNLKNEDTATYFCARNYDYDGYFDVWGAGTTVTVSS VL: DIQMTQSPSSLSASLGGKVTITCKASQDINKYIAWYQHKPGKGPRLLIHYTSTLQPGIPSRFSGSGSGRDYSFSISNLEPEDIATYYCLQYDNLLFTFGSGTKLEIK | 89
humanized monoclonal antibody HuAIP12 (antibody, human IgG1, V domains shown, Human IgG1/kappa; also called unmodified HuAIP12; Wild Type) VH: EVQLVQSGAEVKKPGATVKISCKVSGYTFTDYSMHWVRQAPGKGLKWMGWINTETGEPTYADDFKGRFTFTLDTSTSTAYMELSSLRSEDTAVYYCARNYDYDGYFDVWGQGTTVTVSS VL: DIQMTQSPSSLSASVGDRVTITCKASQDINKYIAWYQQKPGKAPKLLIHYTSTLQPGIPSRFSGSGSGRDYTFTISSLQPEDIATYYCLQYDNLLFTFGQGTKLEIK | 86
humanized monoclonal antibody HuAIP13 (antibody, human IgG1, V domains shown, Human IgG1/kappa) VH: EVQLVQSGAEVKKPGATVKISCKVSGYTFTDYSMHWVRQAPGKGLKWMGWINTEIGEPTYADDFKGRFTFTLDTSTSTAYMELSSLRSEDTAVYYCARNYDYDAYFDVWGQGTTVTVSS VL: DIQMTQSPSSLSASVGDRVTITCKADQDINKYIAWYQQKPGKAPKLLLHHTSTLQPGIPSRFSGSGSGRDYTFTISSLQPEDIATYYCLQYDSLLFTFGQGTKLEIK | 86

Here is another binder to look at.
Output measured inhibition of chemotaxis (IC50%) on recombinant IP-10, mean of donors for this item: murine monoclonal antibody AIP13 (antibody, V domains shown, Mouse hybridoma antibody; Mouse IgG1/kappa was used as its isotype control; also called MuAIP13) VH: QIQLVQSGPELKKPGETVKISCKASGYTFTDYSMHWVKQAPGKGLKWMGWINTEIGEPTYADDFKGRFAFSLETSASTAYLQINNLKNEDTATYFCARNYDYDAYFDVWGAGTTVTVSS VL: DIQMTQSPSSLSASLGGKVTITCKADQDINKYIAWYQHKPGRGPRLLLHHTSTLQPGIPSRFSGSGSGRDYSFSISNLEPADIATYYCLQYDSLLFTFGSGTKLEIK
157
